Values from ChEMBL document CHEMBL4689842

Test system: HEK-293T
Assay: Multiplex assay against HEK293T
Type: toxicity, cell-based
Conditions: human, 24 h, 10 µM, compound concentration 10 uM, replicate 1
Measurement type: Population Pyknosed Nuclei (%)
Supply the numeric figure in %, leaving out any unit text.

**Q:** Look up Population Pyknosed Nuclei (%): CNc1oc(-c2cccc3ccccc23)nc1C#N
**A:** 0

**Q:** // query: Cc1cc2c(cc1N1C(=O)c3cccc4c(CCCO)ccc(c34)C1=O)n(C)c(=O)n2C
**A:** 32

**Q:** // query: Cc1cn(-c2cc(NC(=O)c3ccc4c(c3)CN(c3cncnc3)C[C@@H]4C)cc(C(F)(F)F)c2)cn1
**A:** 10

**Q:** // query: CCOc1cc(N2CCC(O)CC2)ccc1Nc1ncc2c(n1)N(C1CCCC1)CCC(=O)N2C
**A:** 9

**Q:** // query: Nc1ccc(C(=O)Nc2cccc(-c3nc(N4CCOCC4)c4oc5ncccc5c4n3)c2)cn1
**A:** 47

**Q:** // query: CCC(=O)O[C@]1(C(=O)SCF)[C@H](C)C[C@H]2[C@@H]3C[C@H](F)C4=CC(=O)C=C[C@]4(C)[C@@]3(F)[C@@H](O)C[C@@]21C [FLUTICASONE PROPIONATE]
**A:** 50

**Q:** // query: CC(C)(C)c1cnc(CSc2cnc(NC(=O)C3CCNCC3)s2)o1
**A:** 38

**Q:** // query: Cl.Cl.NC1(c2ccc(-c3nc4ccn5c(=O)[nH]nc5c4cc3-c3ccccc3)cc2)CCC1
**A:** 38

###

System: HEK-293T
Test: Multiplex assay against HEK293T
Format: toxicity, cell-based
Details: human, 12 h, 1 µM, compound concentration 1 uM, replicate 1
Measurement type: Total Cell Count
A bare number is all that is needed in reply.

**Q:** Look up Total Cell Count: CC(=O)c1cc(-c2cc(C(=O)NC3CC3)ccc2C)c2ncccn12
**A:** 275

**Q:** // query: CN(C)C/C=C/C(=O)Nc1cc2c(Nc3ccc(F)c(Cl)c3)ncnc2cc1O[C@H]1CCOC1.O=C(O)/C=C\C(=O)O.O=C(O)/C=C\C(=O)O [AFATINIB DIMALEATE]
**A:** 581

**Q:** // query: CNC(=O)c1cc(Oc2ccc(NC(=O)Nc3cc(C(C)(C)C)nn3-c3ccc4ncccc4c3)c(F)c2)ccn1 [REBASTINIB]
**A:** 638

**Q:** // query: CCOc1cc2ncc(C#N)c(Nc3ccc(OCc4cccc(F)c4)c(Cl)c3)c2cc1NC(=O)/C=C/CN(C)C [HKI-357]
**A:** 555

**Q:** // query: CCc1cc2c(cc1CC)CC(NC[C@H](O)c1ccc(O)c3[nH]c(=O)ccc13)C2 [INDACATEROL]
**A:** 240

**Q:** // query: CCC(=O)O[C@]1(C(=O)SCF)[C@H](C)C[C@H]2[C@@H]3C[C@H](F)C4=CC(=O)C=C[C@]4(C)[C@@]3(F)[C@@H](O)C[C@@]21C [FLUTICASONE PROPIONATE]
**A:** 253

**Q:** // query: CC(C)N1CCC(C)(C)c2cc(C#Cc3ccc(C(=O)O)cc3)ccc21
**A:** 278

**Q:** // query: CNC(=O)c1nn(C)c2c1C(C)(C)Cc1cnc(Nc3ccc(N4CCN(C)CC4)cc3)nc1-2 [MILCICLIB]
**A:** 581

**Q:** // query: CC(C)Oc1ccc(C(=O)N[C@H](CNC(=O)CN(C)C)Cc2ccc(-c3cn4cccc([C@H](C)O)c4n3)cc2)cc1Cl [GSK-923295A]
**A:** 623

**Q:** // query: Cl.Cl.NC1(c2ccc(-c3nc4ccn5c(=O)[nH]nc5c4cc3-c3ccccc3)cc2)CCC1
**A:** 657
